test: Chemical stability test (HPLC purity); conditions: HPLC, initial
parameter: Initial Other peaks (%)
Value expressed in %; do not type the unit.

See these solved cases before continuing.
CO[C@@H]1[C@H](OC(=O)C=Cc2ccc(OCCN(C)C)cc2)CC[C@]2(CO2)[C@H]1[C@@]1(C)O[C@@H]1CC=C(C)C [CKD-732, reference compound]    0.8
CO[C@@H]1[C@H](OC(=O)/C=C/c2ccc(OCCCCO)cc2)CC[C@]2(CO2)[C@H]1[C@@]1(C)O[C@@H]1CC=C(C)C [Example 21]    1.0

For COc1ccc(/C=C/C(=O)O[C@@H]2CC[C@]3(CO3)[C@@H]([C@@]3(C)O[C@@H]3CC=C(C)C)[C@@H]2OC)cc1OCCO [Example 4] the compound record lists Initial Other peaks (%) as 1.3
